These measurements were taken from the RNAGym collection of RNA variant scans (doi:10.1002/anie.201605470).

B1: Osa-1-4 twister ribozyme (parent)
chain: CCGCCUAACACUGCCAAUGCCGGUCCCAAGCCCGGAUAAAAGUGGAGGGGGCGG

Variants of: B1
Assay: self-cleavage, relative activity (ratio to wild type); higher = more cleavage; co-transcriptional
Measured parameter: self-cleavage
No unit in the answer, please; the number alone is enough.

In: Need self-cleavage, item G19C U37C
Out: 0.64

In: Next: A39G G54C
Out: 0.76

In: Next: C21U C33A
Out: 0.08

In: Next: A10U C9G
Out: 0.07

In: Next: C14G G23U
Out: 0.03

In: Next: A46U G30C
Out: 0.01

In: Next: G34C G45U
Out: 0.06

In: Next: A10G A39G
Out: 0.82

In: Next: G13A G23U
Out: 0.02

In: Next: A29C U12G
Out: 0.03

In: Next: G19C U24C
Out: 0.04

In: Next: U12G U24G
Out: 0.04

In: Next: A17U G35U
Out: 0.92

In: Next: G22A G23A
Out: 0.12

In: Next: A40G G34U
Out: 0.22

In: Next: A46G U24A
Out: 0.04

In: Next: A7G G22A
Out: 0.18

In: Next: A16G G44A
Out: 0.96

In: Next: G44C G50A
Out: 0.5

In: Next: C31A G49C
Out: 0.01

In: Next: C33A G13A
Out: 0.02

In: Next: A28G C31G
Out: 0.09

In: Next: G30U G53C
Out: 0.03

In: Next: G45C G47U
Out: 0.05

In: Next: A10U C21G
Out: 0.02

In: Next: A40G C25A
Out: 0.06

In: Next: C26U C9U
Out: 0.55

In: Next: A28C G50C
Out: 1

In: Next: A7G G49C
Out: 0.05

In: Next: A10U A8C
Out: 0.03

In: Next: A40U A8G
Out: 0.15

In: Next: C9A G42C
Out: 0.04

In: Next: A29U A39G
Out: 0.07

In: Next: A36C G30A
Out: 0.02

In: Next: A36C U43G
Out: 0.11

In: Next: A7G U18A
Out: 0.38

In: Next: A46C G23A
Out: 0.04

In: Next: A46G C21G
Out: 0.02

In: Next: U12A U43C
Out: 0.11

In: Next: C20A G47C
Out: 0.13

In: Next: A10U U12A
Out: 0.05

In: Next: U37G U43G
Out: 0.68

In: Next: A17U A7G
Out: 0.43

In: Next: C20U G54A
Out: 0.75

In: Next: A39C G19U
Out: 0.11

In: Next: A16G A29U
Out: 0.27

In: Next: C21G U43C
Out: 0.05

In: Next: C20U G53A
Out: 0.75

In: Next: A7U C32U
Out: 0.04

In: Next: A29C U18G
Out: 0.06

In: Next: A38G C52G
Out: 0.96

In: Next: C15G G19U
Out: 0.7

In: Next: A17G C31A
Out: 0.05

In: Next: U24C U37C
Out: 0.51

In: Next: A17C C14A
Out: 0.1

In: Next: A17G G19U
Out: 0.52

In: Next: C11G G34U
Out: 0.04

In: Next: A36G G42U
Out: 0.08

In: Next: A16C G13C
Out: 0.04

In: Next: A17U G54C
Out: 1

In: Next: C25A G19A
Out: 0.06

In: Next: A40C C14G
Out: 0.03

In: Next: C25U G42U
Out: 0.05

In: Next: A16G G44C
Out: 0.96

In: Next: A28G C9G
Out: 0.29

In: Next: A10C A29G
Out: 0.03

In: Next: G19C G47A
Out: 0.03

In: Next: A36U G35U
Out: 1.04

In: Next: C31A
Out: 0.04

In: Next: C32G G22A
Out: 0.1

In: Next: C25A G34U
Out: 0.11

In: Next: C14U G22A
Out: 0.21

In: Next: G35A G53A
Out: 0.68

In: Next: A8G G19C
Out: 0.07

In: Next: A16C U37A
Out: 0.84

In: Next: G13C G22C
Out: 0.01

In: Next: C14G G54U
Out: 0.3

In: Next: A16U U24C
Out: 0.29

In: Next: A41G C25G
Out: 0.06

In: Next: C27G U37A
Out: 0.08

In: Next: C26U G42C
Out: 0.1

In: Next: C21A G13U
Out: 0.04

In: Next: C25A U37A
Out: 0.11

In: Next: A38C G22U
Out: 0.87

In: Next: G13A G22A
Out: 0.07

In: Next: G22U U18C
Out: 0.68

In: Next: G23A U24G
Out: 0.02

In: Next: A10G G19U
Out: 0.13

In: Next: A38G G44A
Out: 0.93

In: Next: C52U G30U
Out: 0.04

In: Next: C11U G23A
Out: 0.1
